Biological target: T1, human ST2L extracellular domain with C-terminal His6 tag (human, UniProt Q01638 19-328)
T1 construct: also called huST2L-ECD; ST2L-ECD
T1 sequence: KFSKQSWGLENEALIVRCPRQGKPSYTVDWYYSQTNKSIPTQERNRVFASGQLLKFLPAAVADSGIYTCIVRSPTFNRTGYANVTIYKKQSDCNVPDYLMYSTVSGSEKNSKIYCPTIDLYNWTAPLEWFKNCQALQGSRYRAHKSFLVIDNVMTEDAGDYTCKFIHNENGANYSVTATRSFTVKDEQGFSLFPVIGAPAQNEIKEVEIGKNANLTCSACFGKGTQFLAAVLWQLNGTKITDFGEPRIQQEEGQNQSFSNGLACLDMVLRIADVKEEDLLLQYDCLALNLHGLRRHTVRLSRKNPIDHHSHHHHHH
Assay: ProteOn SPR, mAb captured, ST2L-ECD in solution
endpoint.name: pKd
Answers are plain numbers, as −log10 of the molar value.

STLM194 (antibody, V domains shown, C2494 HFA mAb: VH STLH195 + VL STLL273 (A20)) VH: QVQLVQSGAEVKKPGASVKVSCKVSAFNIKDDYMHWVRQAPGKGLEWMGRIDPAIGNTEYAPKFQDRVTMTEDTSTDTAYMELSSLRSEDTAVYYCATGDFYAMDYWGQGTLVTVSS VL: DIQMTQSPSSLSASVGDRVTITCITNTDIDDVIHWYQQKPGKVPKLLIYEGNTLRPGVPSRFSGSGSGTDFTLTISSLQPEDVATYYCLQSDNMLTFGQGTKLEIK = 9.15
STLM199 (antibody, V domains shown, C2494 HFA mAb: VH STLH194 + VL STLL278 (L2)) VH: EVQLVQSGAEVKKPGATVKISCKVSAFNIKDDYMHWVQQAPGKGLEWMGRIDPAIGNTEYAEKFQGRVTITADTSTDTAYMELSSLRSEDTAVYYCATGDFYAMDYWGQGTLVTVSS VL: EIVMTQSPATLSVSPGERATLSCITNTDIDDVIHWYQQKPGQAPRLLIYEGNTLRPGIPARFSGSGSGTEFTLTISSLQSEDFAVYYCLQSDNMLTFGQGTKLEIK = 10.38

input: Which pKd value is on record for STLM195 (antibody, V domains shown, C2494 HFA mAb: VH STLH195 + VL STLL272 (O18)) VH: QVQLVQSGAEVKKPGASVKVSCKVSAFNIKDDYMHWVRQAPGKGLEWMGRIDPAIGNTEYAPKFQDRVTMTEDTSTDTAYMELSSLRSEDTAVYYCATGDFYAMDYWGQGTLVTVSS VL: DIQMTQSPSSLSASVGDRVTITCITNTDIDDVIHWYQQKPGKAPKLLIYEGNTLRPGVPSRFSGSGSGTDFTFTISSLQPEDIATYYCLQSDNMLTFGQGTKLEIK ?
output: 9.57
